Just for reference, patent US20150056209A1 is where these values come from.

system: LRO4; test: Competitive phage ELISA, phage binding to LRO4 in presence of MDA-LDL; set-up: species or system murine; settings: Table 2A, Ph.D.-12 library clones; in the presence of 50 μg/mL MDA-LDL
observable: Inhibition of binding to LR04 (B/Bo)
Please give the numeric answer without any surrounding text.

# sequence HQLSNKDEQTPQ [A33] ; its Inhibition of binding to LR04 (B/Bo) = 0.14

# sequence HRISNYAMELHS [G4] ; its Inhibition of binding to LR04 (B/Bo) = 0.10

# sequence ASISNLTLSRFM [M15] ; its Inhibition of binding to LR04 (B/Bo) = 0.15

# sequence GWGNKTPSQDVH [A39] ; its Inhibition of binding to LR04 (B/Bo) = 0.19

# sequence NSWTNASLSTFH [A40] ; its Inhibition of binding to LR04 (B/Bo) = 0.10

# sequence HSLSNIQMATLA [M10, G8] ; its Inhibition of binding to LR04 (B/Bo) = 0.10

# sequence TAVTNSMMERLW [M8] ; its Inhibition of binding to LR04 (B/Bo) = 0.20

# sequence HSLTNTQMTQLS [M31] ; its Inhibition of binding to LR04 (B/Bo) = 0.40

# sequence ESWTNSWAHYFG [A36, B41, M35] ; its Inhibition of binding to LR04 (B/Bo) = 0.14

# sequence ESWNTNSWAMYFG [M2] ; its Inhibition of binding to LR04 (B/Bo) = 0.20

# sequence QNMNNWTLASIM [A31] ; its Inhibition of binding to LR04 (B/Bo) = 0.25

# sequence HSWSNYWGHQHA [A32] ; its Inhibition of binding to LR04 (B/Bo) = 0.18

# sequence ADPFSPTNRIPL [M7] ; its Inhibition of binding to LR04 (B/Bo) = 0.10

# sequence EVMNNWTLASIM [M30] ; its Inhibition of binding to LR04 (B/Bo) = 0.06

# sequence HRLTNSEQAALP [M3, M5] ; its Inhibition of binding to LR04 (B/Bo) = 0.10

# sequence HRMTNAMHHFMG [A38] ; its Inhibition of binding to LR04 (B/Bo) = 0.10

# sequence NSRTNNSQWTFQ [A34] ; its Inhibition of binding to LR04 (B/Bo) = 0.11

# sequence HRMTNNAMDVFM [M6, G10] ; its Inhibition of binding to LR04 (B/Bo) = 0.20

# sequence QSYTNDDVLRIS [M19] ; its Inhibition of binding to LR04 (B/Bo) = 0.25
